Where these numbers come from: patent US20150337019A1

system under test: Cathepsin B from bovine spleen (bovine, UniProt P07688 80-332)
procedure summary: cell-based or functional assay
I would appreciate it if you labelled entries Y when Cathepsin B inhibition test, 2 mM peptide is 100 or higher, otherwise N.

{"binder": "Ac-QNDNR-OH (also: MGO-modified, site not given here) [MGO-modified Ac-QNDNR-OH]", "class name": "Y"}
{"binder": "Ac-QNGNR-OH (also: MGO-modified, site not given here) [MGO-modified Ac-QNGNR-OH]", "class name": "N"}
{"binder": "Ac-QNGNK-OH (also: MGO-modified, site not given here) [MGO-modified Ac-QNGNK-OH]", "class name": "N"}
{"binder": "H-QNGNR-OH [H-QNGNR-OH]", "class name": "N"}
{"binder": "H-QNGNR-OH (also: MGO-modified, site not given here) [MGO-modified H-QNGNR-OH]", "class name": "N"}
{"binder": "H-QNGNK-OH [H-QNGNK-OH]", "class name": "Y"}
{"binder": "Ac-QNDNK-OH (also: MGO-modified, site not given here) [MGO-modified Ac-QNDNK-OH]", "class name": "Y"}
{"binder": "Ac-QNGNK-OH [Ac-QNGNK-OH]", "class name": "Y"}
{"binder": "Ac-QNDNR-OH [Ac-QNDNR-OH]", "class name": "Y"}
{"binder": "H-QNDNK-OH [H-QNDNK-OH]", "class name": "Y"}
{"binder": "Ac-QNDNK-OH [Ac-QNDNK-OH]", "class name": "Y"}
{"binder": "H-QNDNK-OH (also: MGO-modified, site not given here) [MGO-modified H-QNDNK-OH]", "class name": "N"}
{"binder": "H-QNGNK-OH (also: MGO-modified, site not given here) [MGO-modified H-QNGNK-OH]", "class name": "Y"}
{"binder": "H-QNDNR-OH [H-QNDNR-OH]", "class name": "Y"}
